Cited source for all entries: patent US8475804B2

Give Emax for every item shown.
Tested on: Ebola virus
PROTOCOL NOTES: microbe, parasite or virus in culture
Type: cell-based, Ebolavirus (EBOV)
REPORTED CONDITIONS: Zaire ebolavirus, Vero, read-out: Max Effect Vero
Counter-ions that a name gives are not always drawn.
Numbers only, in %.

- COMPOUND: "Nc1ncn([C@@H]2O[C@H](CO)[C@@H](O)[C@H]2O)c(=O)n1"
  Emax / %: 74.6
- COMPOUND: "OCCN1CCN(CCCN2c3ccccc3Sc3ccc(C(F)(F)F)cc32)CC1 [Fluphenazine Hydrochloride]"
  Emax / %: 96.8

Working through the 6 compounds below one at a time, give Emax for each.
1. CNCCCC12CCC(c3ccccc31)c1ccccc12 [Maprotiline Hydrochloride]
2. CCC(C)(C)C(=O)O[C@H]1C[C@@H](C)C=C2C=C[C@H](C)[C@H](CC[C@@H]3C[C@@H](O)CC(=O)O3)[C@H]21
3. O=C1C(O)=C([C@H]2CC[C@H](c3ccc(Cl)cc3)CC2)C(=O)c2ccccc21
4. Cc1nc(Nc2ncc(C(=O)Nc3c(C)cccc3Cl)s2)cc(N2CCN(CCO)CC2)n1
5. Fc1ccc([C@@H]2CCNC[C@H]2COc2ccc3c(c2)OCO3)cc1 [Paroxetine Hydrochloride Hemihydrate]
6. CCN(CC)CCNc1ccc(CO)c2sc3ccccc3c(=O)c12

98.6
55.7
73.9
64.2
96
96.8
